# Test method notes: gradient 5% acetonitrile 3 min, to 50% in 2 min, to 85% in 15 min, held 3 min, 100 µL/min
# Condition context: column: Zorbax Extend-C18 2.1 x 50 mm; eluents: water / acetonitrile, 0.1% formic acid
Quick rule for you: RP-LC retention time under 700 s gets T, anything else gets F.

# example entries with known answers
                                   compound  cat
0  Cc1ccc(NC(=O)N2CCC(N3CCN(Cc4ccccc4)C(=O)C3=O)CC2)cc1Cl    F
1  CCn1ccc(C(=O)NC2CCN(C3=NS(=O)(=O)C(c4ccccc4)=C3C)CC2)n1    F
2  CC(C)OC(=O)CSc1nnc2c(S(=O)(=O)N3CCN(c4ccc(F)cc4)CC3)cccn12    F
3  CCOc1ccc(C(O)CN2CCN(c3ccccn3)CC2)cc1 (centres undefined)    T
4  CCOc1ccc(NC(=O)c2cn(-c3cc(N4CCC(C)CC4)ncn3)cn2)cc1    F

*Q* Please state whether RP-LC retention time is below 700 s for CC(=O)Nc1c(C)cc(OCC(=O)O)cc1C
*A* T

*Q* Does the reported RP-LC retention time of the following compound sit strictly below 700 s? O=C(c1cc(-c2ccc(Br)cc2)n[nH]1)N1CCN(c2ccc(N3CCOCC3)nn2)CC1
*A* T
